system: Mu-type opioid receptor (Rattus norvegicus, UniProt P33535)
Sequence (P33535 whole entry): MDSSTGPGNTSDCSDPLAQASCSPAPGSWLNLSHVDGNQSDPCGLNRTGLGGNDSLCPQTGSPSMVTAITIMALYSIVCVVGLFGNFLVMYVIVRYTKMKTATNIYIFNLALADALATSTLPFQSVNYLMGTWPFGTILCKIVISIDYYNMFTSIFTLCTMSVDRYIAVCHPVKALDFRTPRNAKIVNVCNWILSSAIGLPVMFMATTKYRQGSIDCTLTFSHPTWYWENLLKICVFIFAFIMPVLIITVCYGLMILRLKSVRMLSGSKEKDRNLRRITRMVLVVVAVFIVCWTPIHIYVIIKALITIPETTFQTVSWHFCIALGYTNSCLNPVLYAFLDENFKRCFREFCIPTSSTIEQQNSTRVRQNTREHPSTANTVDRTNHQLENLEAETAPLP
Below, each entry is listed alongside its reported Ki.
Report as a plain number; the unit nM is understood.

Example compounds with recorded Ki:
COc1ccc2c(c1OC)[C@@]13C=C(C#N)CC[C@@]1(O)[C@@H](C2)N(C)CC3    2.44
COc1ccc2c(c1O)[C@]13CCN(C)[C@H](C2)[C@]1(OC)CCC(=O)C3    4.65
COc1ccc2c(c1O)[C@@]13C=C(C#N)CC[C@@]1(OC)[C@@H](C2)N(C)CC3    5.38

Query block: Using the record for "COc1ccc2c(c1OC)[C@]13CCN(C)[C@H](C2)[C@]1(O)CCC(=O)C3" , report its Ki.
Result block: 3.88

Query block: Using the record for "COc1ccc2c(c1O)[C@]13CCN(C)[C@H](C2)[C@]1(O)CCC(=O)C3" , report its Ki.
Result block: 32.6
